Test system: MRSA NCTC 12493
Type: cell-based, Methicillin-resistant Staphylococcus aureus
Ends that are not written are not given here.
Below: a set of entries, each annotated with reported MBC.
experimental_endpoint: MBC

# substance, observed_result
measured = [
    ("ALWKSILKNAGKAALNEINQIVQ-NH2 [SS1]", ">128 µM"),
    ("ALWKSILKNAGKAVLNEINQIV-NH2 [Peptide 14VL23]", ">128 µM"),
    ("ALWKSILKNAGKAGLNEINQIVQ-NH2 [Peptide 14G]", ">128 µM"),
]

###

Test system: K. pneumoniae ATCC 43816
Assay type: cell-based, Klebsiella pneumoniae
Description: The anti-planktonic microorganism efficacy of the peptides was investigated via minimal bacterial inhibitory concentration (MIC) and minimal bactericidal concentration (MBC) assays. […] For the MIC assay, microorganisms were inoculated with peptides in a 96-well plate. […] The MIC values were measured after overnight incubation at 37/26 °C. […]
Ends that are not written are not given here.
experimental_endpoint: MBC (µM)

# substance, experimental_endpoint, censor_symbol, observed_result
measured = [
    ("ALWKKILKNAGKAVLNEINQIVQ-NH2 [Peptide 14V5K]", "MBC", "=", 2),
    ("ALWKSILKNVGKVLNEINQIVQ-NH2 [Peptide L2V]", "MBC", ">", 128),
    ("ALWKSILKNAGKAVLNEINQIV-NH2 [Peptide 14VL23]", "MBC", "=", 4),
    ("ALWKSILKNAGKALNEINQIVQ-NH2 [Peptide L14]", "MBC", "=", 16),
    ("ALWKSILKNAGKAGLNEINQIVQ-NH2 [Peptide 14G]", "MBC", ">", 128),
]
